assay-text: Phase 1 pharmacokinetic study, single oral 25 mg dose of d6-tetrabenazine or tetrabenazine (immediate release, powder in capsule), two-period crossover
Format: in vivo, human
condition-description: plasma analyte; single oral 25 mg d6-tetrabenazine or tetrabenazine, fasted; mean
reported-metric: t1/2

| molecule | result |
| --- | --- |
| COc1cc2c(cc1O)CCN1C[C@@H](CC(C)C)[C@H](O)C[C@H]21 | 6.95 h |
| COc1cc2c(cc1O)CCN1C[C@@H](CC(C)C)[C@@H](O)C[C@H]21 | 16.2 h |
| [2H]C([2H])([2H])Oc1cc2c(cc1OC([2H])([2H])[2H])[C@@H]1C[C@@H](O)[C@@H](CC(C)C)CN1CC2 [d6-β-HTBZ, deuterated beta-dihydrotetrabenazine] | 5.00 h |
| COc1cc2c(cc1OC)[C@H]1C[C@H](O)[C@H](CC(C)C)CN1CC2 [β-HTBZ, beta-dihydrotetrabenazine] | 2.95 h |
| [2H]C([2H])([2H])Oc1cc2c(cc1O)CCN1C[C@@H](CC(C)C)[C@@H](O)C[C@H]21 | 16.9 h |
| [2H]C([2H])([2H])Oc1cc2c(cc1OC([2H])([2H])[2H])[C@H]1C[C@@H](O)[C@H](CC(C)C)CN1CC2 [d6-α-HTBZ, deuterated alpha-dihydrotetrabenazine] | 8.97 h |

====

assay-text: Phase 1 pharmacokinetic study, single oral 25 mg dose of d6-tetrabenazine or tetrabenazine (immediate release, powder in capsule), two-period crossover
Type: in vivo, human
condition-description: plasma analyte; single oral 25 mg d6-tetrabenazine or tetrabenazine, fasted; mean
Note to self: use fulfilled only for AUCinf readings below 200 ng·h/mL; a reading exactly at 200 ng·h/mL still gets not fulfilled.

| compound | label |
| --- | --- |
| [2H]C([2H])([2H])Oc1cc2c(cc1O)CCN1C[C@@H](CC(C)C)[C@@H](O)C[C@H]21 [d3-9-O-desmethy1-β-HTBZ] | fulfilled |
| COc1cc2c(cc1O)CCN1C[C@@H](CC(C)C)[C@H](O)C[C@H]21 [9-O-desmethyl-α-HTBZ] | fulfilled |
| [2H]C([2H])([2H])Oc1cc2c(cc1OC([2H])([2H])[2H])[C@H]1C[C@@H](O)[C@H](CC(C)C)CN1CC2 [d6-α-HTBZ, deuterated alpha-dihydrotetrabenazine] | not fulfilled |
| [2H]C([2H])([2H])Oc1cc2c(cc1OC([2H])([2H])[2H])[C@@H]1C[C@@H](O)[C@@H](CC(C)C)CN1CC2 [d6-β-HTBZ, deuterated beta-dihydrotetrabenazine] | fulfilled |
| COc1cc2c(cc1OC)[C@H]1C[C@H](O)[C@H](CC(C)C)CN1CC2 [β-HTBZ, beta-dihydrotetrabenazine] | fulfilled |
| COc1cc2c(cc1O)CCN1C[C@@H](CC(C)C)[C@@H](O)C[C@H]21 [9-O-desmethyl-β-HTBZ] | not fulfilled |

====

assay-text: Phase 1 pharmacokinetic study, single oral 25 mg dose of d6-tetrabenazine or tetrabenazine (immediate release, powder in capsule), two-period crossover
Assay type: in vivo, human
condition-description: plasma analyte; single oral 25 mg d6-tetrabenazine or tetrabenazine, fasted; mean
Cmax: recorded values
reported-metric: Cmax (ng/mL)

| molecule | quantitative-readout |
| --- | --- |
| COc1cc2c(cc1O)C1CC(O)C(CC(C)C)CN1CC2 (stereo not drawn) | 1.63 |
| [2H]C([2H])([2H])Oc1cc2c(cc1O)CCN1C[C@@H](CC(C)C)[C@H](O)C[C@H]21 | 2.15 |
| [2H]C([2H])([2H])Oc1cc2c(cc1O)CCN1C[C@@H](CC(C)C)[C@@H](O)C[C@H]21 | 6.29 |

====

assay-text: Phase 1 pharmacokinetic study, single oral 25 mg dose of d6-tetrabenazine or tetrabenazine (immediate release, powder in capsule), two-period crossover
Type: in vivo, human
condition-description: plasma analyte; single oral 25 mg d6-tetrabenazine or tetrabenazine, fasted; mean
reported-metric: Cmax (ng/mL)

| compound | quantitative-readout |
| --- | --- |
| COc1cc2c(cc1O)CCN1C[C@@H](CC(C)C)[C@@H](O)C[C@H]21 | 15.7 |
| [2H]C([2H])([2H])Oc1cc2c(cc1OC([2H])([2H])[2H])[C@@H]1C[C@@H](O)[C@@H](CC(C)C)CN1CC2 [d6-β-HTBZ, deuterated beta-dihydrotetrabenazine] | 29.6 |
| [2H]C([2H])([2H])Oc1cc2c(cc1O)C1CC(O)C(CC(C)C)CN1CC2 (stereo not drawn) | 0.59 |
| COc1cc2c(cc1OC)[C@H]1C[C@H](O)[C@H](CC(C)C)CN1CC2 [β-HTBZ, beta-dihydrotetrabenazine] | 20.5 |
| COc1cc2c(cc1O)CCN1C[C@@H](CC(C)C)[C@H](O)C[C@H]21 | 5.05 |
| [2H]C([2H])([2H])Oc1cc2c(cc1OC([2H])([2H])[2H])[C@H]1C[C@@H](O)[C@H](CC(C)C)CN1CC2 [d6-α-HTBZ, deuterated alpha-dihydrotetrabenazine] | 46.1 |

====

This section presents compounds with their documented log10 AUClast values.
assay-text: Phase 1 pharmacokinetic study, single oral 25 mg dose of d6-tetrabenazine or tetrabenazine (immediate release, powder in capsule), two-period crossover
Assay type: in vivo, human
condition-description: plasma analyte; single oral 25 mg d6-tetrabenazine or tetrabenazine, fasted; mean
reported-metric: log10 AUClast (log10 of the value in ng·h/mL)

| compound | log10 AUClast |
| --- | --- |
| COc1cc2c(cc1O)C1CC(O)C(CC(C)C)CN1CC2 (stereo not drawn) | 0.48 |
| [2H]C([2H])([2H])Oc1cc2c(cc1O)C1CC(O)C(CC(C)C)CN1CC2 (stereo not drawn) | -0.15 |
| [2H]C([2H])([2H])Oc1cc2c(cc1O)CCN1C[C@@H](CC(C)C)[C@H](O)C[C@H]21 | 1.32 |
| COc1cc2c(cc1O)CCN1C[C@@H](CC(C)C)[C@@H](O)C[C@H]21 | 2.31 |
| COc1cc2c(cc1O)CCN1C[C@@H](CC(C)C)[C@H](O)C[C@H]21 | 1.63 |
| [2H]C([2H])([2H])Oc1cc2c(cc1O)CCN1C[C@@H](CC(C)C)[C@@H](O)C[C@H]21 | 1.97 |

====

assay-text: Phase 1 pharmacokinetic study, single oral 25 mg dose of d6-tetrabenazine or tetrabenazine (immediate release, powder in capsule), two-period crossover
Format: in vivo, human
condition-description: human; plasma analyte; single oral 25 mg d6-tetrabenazine or tetrabenazine, fasted; mean; read-out: Cmax
Property: Cmax; scope: individual compounds
reported-metric: Cmax

| compound | result |
| --- | --- |
| [2H]C([2H])([2H])Oc1cc2c(cc1OC([2H])([2H])[2H])[C@@H]1CC(=O)[C@@H](CC(C)C)CN1CC2 (racemic) | 0.327 ng/mL |
| COc1cc2c(cc1OC)[C@@H]1CC(=O)[C@@H](CC(C)C)CN1CC2 (racemic) [Tetrabenazine, reference compound] | 0.314 ng/mL |

====

Here the recorded Tmax is given for each entry.
assay-text: Phase 1 pharmacokinetic study, single oral 25 mg dose of d6-tetrabenazine or tetrabenazine (immediate release, powder in capsule), two-period crossover
Type: in vivo, human
condition-description: plasma analyte; single oral 25 mg d6-tetrabenazine or tetrabenazine, fasted; mean

| compound | Tmax / h |
| --- | --- |
| [2H]C([2H])([2H])Oc1cc2c(cc1O)C1CC(O)C(CC(C)C)CN1CC2 (stereo not drawn) | 1.50 |
| [2H]C([2H])([2H])Oc1cc2c(cc1OC([2H])([2H])[2H])[C@@H]1C[C@@H](O)[C@@H](CC(C)C)CN1CC2 [d6-β-HTBZ, deuterated beta-dihydrotetrabenazine] | 1.50 |
| COc1cc2c(cc1O)C1CC(O)C(CC(C)C)CN1CC2 (stereo not drawn) | 1.25 |
| [2H]C([2H])([2H])Oc1cc2c(cc1O)CCN1C[C@@H](CC(C)C)[C@@H](O)C[C@H]21 | 1.75 |
| [2H]C([2H])([2H])Oc1cc2c(cc1O)CCN1C[C@@H](CC(C)C)[C@H](O)C[C@H]21 | 3.02 |
| COc1cc2c(cc1O)CCN1C[C@@H](CC(C)C)[C@@H](O)C[C@H]21 | 1.75 |
| COc1cc2c(cc1O)CCN1C[C@@H](CC(C)C)[C@H](O)C[C@H]21 | 2.00 |
| COc1cc2c(cc1OC)[C@H]1C[C@H](O)[C@H](CC(C)C)CN1CC2 [β-HTBZ, beta-dihydrotetrabenazine] | 1.00 |
| [2H]C([2H])([2H])Oc1cc2c(cc1OC([2H])([2H])[2H])[C@H]1C[C@@H](O)[C@H](CC(C)C)CN1CC2 [d6-α-HTBZ, deuterated alpha-dihydrotetrabenazine] | 1.5 |
